Could you please report measured pIC50 for the items listed next?
tgt: human JAK1 (a.a. 837-1142) (Homo sapiens, UniProt P23458)
Construct: human JAK1 (a.a. 837-1142); His tag (N); made in house; host or cells: insect cells (baculovirus)
Sequence (P23458 849-1154): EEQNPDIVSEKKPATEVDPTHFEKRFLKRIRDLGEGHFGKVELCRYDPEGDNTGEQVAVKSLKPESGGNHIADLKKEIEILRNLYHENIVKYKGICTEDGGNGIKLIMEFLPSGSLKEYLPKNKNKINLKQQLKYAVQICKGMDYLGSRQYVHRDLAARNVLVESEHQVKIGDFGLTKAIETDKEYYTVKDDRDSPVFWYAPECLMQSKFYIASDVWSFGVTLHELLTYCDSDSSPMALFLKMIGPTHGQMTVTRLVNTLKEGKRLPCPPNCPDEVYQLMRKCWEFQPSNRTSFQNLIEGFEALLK
assay comment: In vitro JAK kinase assay (HTRF, phosphorylation of a biotinylated peptide), JAK1
Type: biochemical
run parameters: method AA1 (90 μM ATP) or AA2 (1000 μM ATP), not stated per value; read-out: JAK1 IC50
Counter-ions that a name gives are not always drawn.
// pIC50: -log10(molar conc.)

## Input Give human JAK1 (a.a. 837-1142) (Homo sapiens, UniProt P23458) pIC50 for Clc1cnc2nc1Nc1ccc(OC3CCCC3)c(c1)CCc1cccc(c1)N2 [Example A14, trifluoroacetate]
## Output 7.13

## Input Give human JAK1 (a.a. 837-1142) (Homo sapiens, UniProt P23458) pIC50 for N#Cc1cccc(C(=O)N2CCC(CC(=O)Nc3ccc4cc3CCc3cncc(c3)Nc3ncc(Cl)c(n3)N4)CC2)c1 [Example A191, bis(trifluoroacetate)]
## Output 7.17

## Input Give human JAK1 (a.a. 837-1142) (Homo sapiens, UniProt P23458) pIC50 for O=C(COc1ccc2cc1CCc1cccc(c1)Nc1ncc(Cl)c(n1)N2)N1CCN(C(=O)Nc2ccccc2)CC1 [Example A13, trifluoroacetate]
## Output 9.00

## Input Give human JAK1 (a.a. 837-1142) (Homo sapiens, UniProt P23458) pIC50 for Cc1oncc1S(=O)(=O)N1CCC(CC(=O)Nc2ccc3cc2CCc2cncc(c2)Nc2ncc(Cl)c(n2)N3)CC1 [Example A200, bis(trifluoroacetate)]
## Output 8.07

## Input Give human JAK1 (a.a. 837-1142) (Homo sapiens, UniProt P23458) pIC50 for O=C(CC1CCN(C(=O)Nc2ccc(F)cc2)CC1)Nc1ccc2cc1CCc1cncc(c1)Nc1ncc(Cl)c(n1)N2 [Example A148, bis(trifluoroacetate)]
## Output 9.70

## Input Give human JAK1 (a.a. 837-1142) (Homo sapiens, UniProt P23458) pIC50 for O=C(CC1CCN(S(=O)(=O)c2ccccc2F)CC1)Nc1ccc2cc1CCc1cncc(c1)Nc1ncc(Cl)c(n1)N2 [Example A226, bis(trifluoroacetate)]
## Output 8.28

## Input Give human JAK1 (a.a. 837-1142) (Homo sapiens, UniProt P23458) pIC50 for Cc1cc(C(=O)N2CCC(CCC(=O)Nc3ccc4cc3CCc3cccc(c3)Nc3ncc(Cl)c(n3)N4)CC2)no1 [Example A124, trifluoroacetate]
## Output 9.22

## Input Give human JAK1 (a.a. 837-1142) (Homo sapiens, UniProt P23458) pIC50 for O=C(CC1CCN(c2nc3cccnc3o2)CC1)Nc1ccc2cc1CCc1cccc(c1)Nc1ncc(Cl)c(n1)N2 [Example A126, bis(trifluoroacetate)]
## Output 9.30

## Input Give human JAK1 (a.a. 837-1142) (Homo sapiens, UniProt P23458) pIC50 for O=C(CC1CCNC1)Nc1ccc2cc1CCc1cncc(c1)Nc1ncc(Cl)c(n1)N2 (stereo not drawn) [Example A105, tris(trifluoroacetate)]
## Output 7.54

## Input Give human JAK1 (a.a. 837-1142) (Homo sapiens, UniProt P23458) pIC50 for O=C(CC1CCN(S(=O)(=O)c2ccco2)CC1)Nc1ccc2cc1CCc1cncc(c1)Nc1ncc(Cl)c(n1)N2 [Example A201, bis(trifluoroacetate)]
## Output 8.03

## Input Give human JAK1 (a.a. 837-1142) (Homo sapiens, UniProt P23458) pIC50 for Cc1ccccc1S(=O)(=O)N1CCC(CC(=O)Nc2ccc3cc2CCc2cncc(c2)Nc2ncc(Cl)c(n2)N3)CC1 [Example A225, bis(trifluoroacetate)]
## Output 8.14

## Input Give human JAK1 (a.a. 837-1142) (Homo sapiens, UniProt P23458) pIC50 for O=C(CC1CCN(c2ccncc2)CC1)Nc1ccc2cc1CCc1cncc(c1)Nc1ncc(Cl)c(n1)N2 [Example A242, tris(trifluoroacetate)]
## Output 7.40

Data origin: patent US8871753B2
